# pIC50 per entry
Molecular target: UniProtKB Q12809
pIC50: −log10 of the molar value.

>  <molecule>
COC1COCCC1N[C@@H]1C[C@H]2C[C@@H](OC)C[C@@]2(C(=O)N2CCc3ncc(C(F)(F)F)cc3C2)C1 (mixture of isomers)

>  <value qualifier>
<

>  <pIC50>
4.30

$$$$
>  <molecule>
COC1COCCC1N[C@@H]1C[C@H]2CC(F)(F)C[C@@]2(C(=O)N2CCc3ncc(C(F)(F)F)cc3C2)C1 (mixture of isomers)

>  <value qualifier>
<

>  <pIC50>
4.30

$$$$
>  <molecule>
COC1COCCC1N[C@@H]1C[C@H]2C[C@H](O)C[C@@]2(C(=O)N2CCc3ncc(C(F)(F)F)cc3C2)C1 (mixture of isomers)

>  <value qualifier>
<

>  <pIC50>
4.30

$$$$
>  <molecule>
COC1COCCC1N[C@@H]1C[C@H]2CCC[C@@]2(C(=O)N2CCc3ccc(C(F)(F)F)cc3C2)C1 (mixture of isomers)

>  <value qualifier>
=

>  <pIC50>
4.56

$$$$
>  <molecule>
CCC(CC)N[C@@H]1C[C@H]2CCC[C@@]2(C(=O)N2CCc3ncc(C(F)(F)F)cc3C2)C1

>  <value qualifier>
<

>  <pIC50>
4.30

$$$$
>  <molecule>
COC1COCCC1N[C@@H]1C[C@H]2CCC[C@@]2(C(=O)N2CCc3ccc(Br)cc3C2)C1 (mixture of isomers)

>  <value qualifier>
=

>  <pIC50>
4.69

$$$$
>  <molecule>
O=C(N1CCc2ncc(C(F)(F)F)cc2C1)[C@@]12CCC[C@@H]1C[C@@H](NC1CCOCC1)C2

>  <value qualifier>
=

>  <pIC50>
4.59

$$$$

* * *

Target: Voltage-gated inwardly rectifying potassium channel KCNH2 (Homo sapiens)
Sequence (Q12809 whole entry): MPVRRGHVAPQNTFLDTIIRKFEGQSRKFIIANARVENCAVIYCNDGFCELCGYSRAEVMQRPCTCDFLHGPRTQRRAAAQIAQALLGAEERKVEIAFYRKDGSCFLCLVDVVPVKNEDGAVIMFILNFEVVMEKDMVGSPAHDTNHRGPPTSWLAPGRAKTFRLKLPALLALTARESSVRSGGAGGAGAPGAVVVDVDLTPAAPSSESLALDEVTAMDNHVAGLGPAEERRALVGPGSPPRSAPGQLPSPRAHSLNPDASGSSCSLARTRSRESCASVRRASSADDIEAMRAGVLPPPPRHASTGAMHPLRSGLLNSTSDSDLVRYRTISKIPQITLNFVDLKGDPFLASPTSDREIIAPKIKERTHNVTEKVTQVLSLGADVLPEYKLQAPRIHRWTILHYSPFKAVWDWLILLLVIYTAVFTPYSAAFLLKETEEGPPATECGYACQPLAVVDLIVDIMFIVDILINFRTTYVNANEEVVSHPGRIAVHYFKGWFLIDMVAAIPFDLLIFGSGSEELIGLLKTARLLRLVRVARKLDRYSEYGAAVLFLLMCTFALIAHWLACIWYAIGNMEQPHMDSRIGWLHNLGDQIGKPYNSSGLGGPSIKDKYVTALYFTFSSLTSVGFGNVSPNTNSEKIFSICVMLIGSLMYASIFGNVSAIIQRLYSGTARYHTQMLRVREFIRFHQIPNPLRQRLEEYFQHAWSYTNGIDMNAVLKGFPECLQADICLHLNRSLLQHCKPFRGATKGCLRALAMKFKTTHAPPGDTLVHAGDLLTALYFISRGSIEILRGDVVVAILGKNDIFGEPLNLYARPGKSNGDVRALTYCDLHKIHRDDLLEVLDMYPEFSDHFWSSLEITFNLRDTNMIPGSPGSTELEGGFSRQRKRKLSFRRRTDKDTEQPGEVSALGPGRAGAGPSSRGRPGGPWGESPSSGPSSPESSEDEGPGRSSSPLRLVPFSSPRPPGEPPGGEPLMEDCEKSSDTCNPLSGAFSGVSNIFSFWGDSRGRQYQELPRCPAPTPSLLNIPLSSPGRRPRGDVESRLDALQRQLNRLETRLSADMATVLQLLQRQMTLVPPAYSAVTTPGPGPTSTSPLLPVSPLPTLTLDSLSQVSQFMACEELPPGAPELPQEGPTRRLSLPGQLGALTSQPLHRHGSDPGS
pIC50: −log10 of the molar value.
# pIC50 per entry

>  <molecule>
COC1COCCC1N[C@@H]1C[C@H]2C[C@H](OC)C[C@@]2(C(=O)N2CCc3ncc(C(F)(F)F)cc3C2)C1 (mixture of isomers)

>  <value qualifier>
<

>  <pIC50>
4.30

$$$$
>  <molecule>
O=C(N[C@@H]1C[C@H]2CCC[C@@]2(C(=O)N2CCc3ncc(C(F)(F)F)cc3C2)C1)C1CCOCC1

>  <value qualifier>
<

>  <pIC50>
4.30

$$$$
>  <molecule>
O=C(N1CCc2ncc(C(F)(F)F)cc2C1)[C@@]12CCC[C@@H]1C[C@@H](NC1CCSCC1)C2

>  <value qualifier>
=

>  <pIC50>
4.64

$$$$
>  <molecule>
COC1COCCC1N[C@@H]1C[C@H]2C[C@@H](O)C[C@@]2(C(=O)N2CCc3ncc(C(F)(F)F)cc3C2)C1 (mixture of isomers)

>  <value qualifier>
<

>  <pIC50>
4.30

$$$$
>  <molecule>
COC1COCCC1N[C@@H]1C[C@H]2CCC[C@@]2(C(=O)N2CCc3ccc(Cl)cc3C2)C1 (mixture of isomers)

>  <value qualifier>
=

>  <pIC50>
4.37

$$$$
>  <molecule>
O=C(N1CCc2ncc(C(F)(F)F)cc2C1)[C@@]12CCC[C@@H]1C[C@@H](NCC1CCOCC1)C2

>  <value qualifier>
=

>  <pIC50>
4.33

$$$$
>  <molecule>
O=C(N1CCc2ncc(C(F)(F)F)cc2C1)[C@@]12CCC[C@@H]1C[C@@H](NC1CCCC1)C2

>  <value qualifier>
=

>  <pIC50>
4.47

$$$$
>  <molecule>
COC1COCCC1N[C@@H]1C[C@H]2C[C@H](Cl)C[C@@]2(C(=O)N2CCc3ncc(C(F)(F)F)cc3C2)C1 (mixture of isomers)

>  <value qualifier>
<

>  <pIC50>
4.30

$$$$
>  <molecule>
O=C(N1CCc2ncc(C(F)(F)F)cc2C1)[C@@]12CCCC[C@@H]1C[C@@H](NC1CCOCC1)C2

>  <value qualifier>
=

>  <pIC50>
4.41

$$$$
>  <molecule>
COC1COCCC1N[C@@H]1C[C@H]2C[C@@H](Cl)C[C@@]2(C(=O)N2CCc3ncc(C(F)(F)F)cc3C2)C1 (mixture of isomers)

>  <value qualifier>
<

>  <pIC50>
4.30

$$$$

* * *

Assay: Volume of distribution at steady state in dog at 10 mg/kg, po and 2 mg/kg iv
Assay type: ADME, organism-based, Canis lupus familiaris
Conditions: in vivo, read-out: Vdss

>  <smiles record>
CO[C@@H]1COCC[C@@H]1N[C@@H]1C[C@H]2CCC[C@@]2(C(=O)N2CCc3ncc(C(F)(F)F)cc3C2)C1

>  <Vd, L/kg>
2.3

$$$$

* * *

Assay: AUC in dog at 10 mg/kg, po
Format: ADME, organism-based, Canis lupus familiaris
Parameters: dose 10 mg/kg, route oral
Conditions: plasma

>  <smiles record>
CO[C@@H]1COCC[C@@H]1N[C@@H]1C[C@H]2CCC[C@@]2(C(=O)N2CCc3ncc(C(F)(F)F)cc3C2)C1

>  <AUC>
12100 ng·h/mL

$$$$

* * *

Biological target: Cytochrome P450 2C19 (Homo sapiens, UniProt P33261)
Sequence (P33261 whole entry): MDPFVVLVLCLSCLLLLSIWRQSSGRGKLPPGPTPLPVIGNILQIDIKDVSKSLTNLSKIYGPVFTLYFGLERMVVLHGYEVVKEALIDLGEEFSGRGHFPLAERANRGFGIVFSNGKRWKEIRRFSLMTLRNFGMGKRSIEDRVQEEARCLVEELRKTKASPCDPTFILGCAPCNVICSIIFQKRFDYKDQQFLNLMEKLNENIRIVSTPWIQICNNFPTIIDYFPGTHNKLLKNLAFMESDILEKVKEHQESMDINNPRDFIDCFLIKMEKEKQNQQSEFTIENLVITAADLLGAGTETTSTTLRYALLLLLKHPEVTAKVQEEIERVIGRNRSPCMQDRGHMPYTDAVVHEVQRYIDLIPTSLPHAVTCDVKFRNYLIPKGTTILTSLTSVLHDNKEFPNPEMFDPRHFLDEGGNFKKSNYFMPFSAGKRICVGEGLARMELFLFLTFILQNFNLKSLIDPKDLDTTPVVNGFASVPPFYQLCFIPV

>  <smiles record>
CO[C@@H]1COCC[C@@H]1N[C@@H]1C[C@H]2CCC[C@@]2(C(=O)N2CCc3ncc(C(F)(F)F)cc3C2)C1

>  <IC50>
> 10 µM

$$$$

* * *

Assay: Oral bioavailability in dog at 10 mg/kg
Type: ADME, organism-based, Canis lupus familiaris
Details: in vivo

>  <smiles record>
CO[C@@H]1COCC[C@@H]1N[C@@H]1C[C@H]2CCC[C@@]2(C(=O)N2CCc3ncc(C(F)(F)F)cc3C2)C1

>  <bioavailability, %>
100

$$$$
